assay: blockers of yeast NLRP3/ASC/caspase-1 reporter – luminescence, uHTS, primary screen (AID 2825); settings: Yeast reconstituted NLRP3/ASC/caspase-1, beta-gal luminescence, 24 h; at 10 µM
Screen size: about 330,000 compounds; about 1,300 (0.39%) were called active.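 Rule for the calls: active = inhibition of 50% or more; inactive = inhibition below 50%.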 This is one part of a sample in which actives are shown more often than they occur.
Outcomes: active, inactive

| compound | class_label |
| --- | --- |
| C=CCn1c(=O)c(C(=O)Nc2ncccc2O)c(O)c2ccccc21 | inactive |
| Oc1c(Cl)cc(Cl)c(Cl)c1Cc1c(O)c(Cl)cc(Cl)c1Cl | active |
| COc1ccc(OCC(=O)NCCS(=O)(=O)N2CCN(c3ccc(F)cc3)CC2)cc1 | inactive |
| CCCC(=O)N=c1sc2cccc(F)c2n1C | inactive |
| COC(=O)c1ccc(S(=O)(=O)N(CCO)Cc2ccccc2)n1C | inactive |
| CN1CCN(C(=O)/C(=C\c2cccs2)NC(=O)c2cccs2)CC1 | inactive |
| Cn1c(=NC(=O)c2ccco2)sc2cccc(F)c21 | active |
| Cc1nn(CCOc2ccccc2)c(=O)n1-c1ccccc1F | inactive |
| O=C(NC1CCC(O)CC1)c1ccccc1OCc1ccc(F)cc1 (stereo unspecified) | inactive |
| Cn1c(=O)c(C(=O)Nc2ncccn2)c(O)c2ccccc21 | active |
| CC1CC(C)CN(S(=O)(=O)c2cccc3nonc23)C1 (stereo unspecified) | inactive |
